Below: a set of entries, each annotated with reported STS inhibition (%).
target: STS (Homo sapiens, UniProt P08842); construct: expressed in transfected cells; host or cells: HEK-293 cells stably transfected with STS (G418 selection), obtained from Dr. Van Luu-The; used as freeze-thaw homogenate; assay: STS inhibition of libraries 1-EO to 4-EO, homogenate of STS transfected HEK-293 cells; type: biochemical; details: 0.1 μM; mean ± SEM, triplicate
Note: unit % is implicit; provide only the numeric part.

# compound-string, target-entity, STS inhibition (%)
rows = [
    ("CN(C)CCN(Cc1ccccc1)Cc1ccc(C(=O)N2CCc3ccc(OS(N)(=O)=O)cc3C2)cc1", "STS (Homo sapiens, UniProt P08842)", 13.9),
    ("CCN(Cc1cccc(C(=O)N2CCc3ccc(OS(N)(=O)=O)cc3C2)c1)Cc1ccccn1", "STS (Homo sapiens, UniProt P08842)", 6.5),
    ("CCCN(Cc1ccccc1)Cc1ccc(C(=O)N2CCc3ccc(OS(N)(=O)=O)cc3C2)cc1", "STS (Homo sapiens, UniProt P08842)", 64.8),
    ("CN(CCN1CCCCC1)Cc1cccc(C(=O)N2CCc3ccc(OS(N)(=O)=O)cc3C2)c1", "STS (Homo sapiens, UniProt P08842)", 24.5),
    ("NS(=O)(=O)Oc1ccc2c(c1)CN(C(=O)c1cccc(CN3CCCCC3)c1)CC2", "STS (Homo sapiens, UniProt P08842)", 1.0),
]

Exercise: What value of measured STS inhibition (%) is listed for `NS(=O)(=O)Oc1ccc2c(c1)CN(C(=O)c1ccc(CN3CCSCC3)cc1)CC2` ?
Key: 32.3

Exercise: What value of measured STS inhibition (%) is listed for `NS(=O)(=O)Oc1ccc2c(c1)CN(C(=O)c1ccc(CN3CCc4ccccc4C3)cc1)CC2` ?
Key: 56.0

----------
Target: STS (Homo sapiens, UniProt P08842)
Construct: expressed in transfected cells; host or cells: HEK-293 cells stably transfected with STS (G418 selection), obtained from Dr. Van Luu-The; used as freeze-thaw homogenate
Sequence (P08842 22-583): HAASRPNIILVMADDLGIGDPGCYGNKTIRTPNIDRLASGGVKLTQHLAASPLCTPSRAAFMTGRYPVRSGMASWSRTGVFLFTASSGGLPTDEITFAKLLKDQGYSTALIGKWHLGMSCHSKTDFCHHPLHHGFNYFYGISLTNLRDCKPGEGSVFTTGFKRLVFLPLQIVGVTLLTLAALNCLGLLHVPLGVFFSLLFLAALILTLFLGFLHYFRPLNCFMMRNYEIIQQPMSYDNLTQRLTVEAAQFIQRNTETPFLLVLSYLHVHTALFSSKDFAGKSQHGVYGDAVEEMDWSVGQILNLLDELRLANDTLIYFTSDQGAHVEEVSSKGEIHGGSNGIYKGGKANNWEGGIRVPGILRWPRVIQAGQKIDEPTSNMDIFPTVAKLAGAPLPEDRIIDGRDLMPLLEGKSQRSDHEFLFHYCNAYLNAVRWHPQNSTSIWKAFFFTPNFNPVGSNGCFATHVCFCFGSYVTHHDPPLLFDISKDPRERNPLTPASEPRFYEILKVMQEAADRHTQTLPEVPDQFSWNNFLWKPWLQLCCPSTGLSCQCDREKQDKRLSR
Experiment: STS inhibition of libraries 1-EO to 4-EO, homogenate of STS transfected HEK-293 cells
Type: biochemical
Settings: 0.1 μM; mean ± SEM, triplicate
experimental-readout: STS inhibition (%)
State the result as a value with its unit after it.

Some compounds with known STS inhibition (%) results, for comparison:
# compound, STS inhibition (%)
measured = [
    ("NS(=O)(=O)Oc1ccc2c(c1)CN(C(=O)c1cccc(CN3CCC(N4CCCCC4)CC3)c1)CC2 [2-EO-08]", "0.0 ± 2.4%"),
    ("CCN(Cc1cccnc1)Cc1cccc(C(=O)N2CCc3ccc(OS(N)(=O)=O)cc3C2)c1 [4-EO-15]", "14.3 ± 4.7%"),
    ("CN(C)CCCN(Cc1ccccc1)Cc1cccc(C(=O)N2CCc3ccc(OS(N)(=O)=O)cc3C2)c1 [4-EO-05]", "23.8 ± 4.1%"),
]

Continue with the compound presented below.
Exercise: What value of measured STS inhibition (%) is listed for NS(=O)(=O)Oc1ccc2c(c1)CN(C(=O)c1cccc(CN3CCN(c4ncccn4)CC3)c1)CC2 [2-EO-06] ?
Key: 1.6 ± 1.6%

Origin of the recorded values: patent US9708305B2
